Give growth for every item shown.
tested on: SF-539 CNS; assay: NCI-60 one-dose screen, 48 h (100 = growth as untreated, 0 = no growth, -100 = all killed); details: 10 µM
This is part of a sample that, as a whole, favours compounds with a hit. Of some 83,000 tested, about 20% had one in any assay.
Answers are plain numbers, in %.

Guide cases for growth, answers given:
- MOLECULE: "CN1CCc2c(sc3ncnc(N/N=C/c4ccc5ccccc5c4)c23)C1"
  ASSAYED_TARGET: "SF-539 CNS"
  MEASURE: "growth"
  OBS_VALUE: 29.1
- MOLECULE: "COc1ccc(-c2nc(S(=O)(=O)c3ccc(C)cc3)c(S(C)(=O)=O)o2)cc1"
  ASSAYED_TARGET: "SF-539 CNS"
  MEASURE: "growth"
  OBS_VALUE: -100
- MOLECULE: "Cc1ccc(C(C)C)cc1NC(=O)c1ccccc1N(C)C"
  ASSAYED_TARGET: "SF-539 CNS"
  MEASURE: "growth"
  OBS_VALUE: 96.9
- MOLECULE: "O=C(c1ccc(Cl)cc1)C1[C@H](c2ccccc2Br)[C@@H](c2ccccc2)NC12C(=O)Nc1ccc(Cl)cc12 (stereo not given in full)"
  ASSAYED_TARGET: "SF-539 CNS"
  MEASURE: "growth"
  OBS_VALUE: 39.7
- MOLECULE: "O=C(Nc1nc2ccccc2s1)c1ccc(Br)cc1"
  ASSAYED_TARGET: "SF-539 CNS"
  MEASURE: "growth"
  OBS_VALUE: 92.8

Report growth for every entry below.
1. COc1ccc2[nH]c(=O)c(CSc3nccc(-c4ccc(Cl)cc4)n3)cc2c1
2. C=CC(=O)Nc1nc(-c2cccc(NS(=O)(=O)c3cccc4c(N(C)C)cccc34)c2)cs1
3. CN1CCN(Cc2ccc(NC(=O)c3cncc(C#Cc4cnc5ccc(N[C@H]6CCOC6)nn45)c3)cc2C(F)(F)F)CC1
4. CC1=C(c2cc(-c3ccc(Cl)cc3)c(C#N)c(N)n2)C(c2ccccc2)NC(=S)N1 (stereo not given)
5. N[C@@H](CSSC[C@H](N)C(=O)Nc1ccc(OCC2CCCC2)cc1)C(=O)Nc1ccc(OCC2CCCC2)cc1
6. O=C(NO)c1ccc(CNc2nc(-c3ccccc3)c3ccccc3n2)cc1
7. COC[C@@H](CC(C)C)N=C1NC(=O)/C(=C/c2ccc3ncoc3c2)N1
8. CCOC(=O)C1=C(N)N(c2ccccc2)C2=C(C(=O)CC(C)(C)C2)C1c1ccccc1OC (stereo not given)

[-70.3, -100, -99.7, 39.9, -99.7, 1.02, -5.08, 92.6]
